pIC50: −log10 of the molar value.
A compilation of published pIC50 results with Fibroblast growth factor receptor 1 (Homo sapiens, UniProt P11362).
Sequence (P11362 whole entry): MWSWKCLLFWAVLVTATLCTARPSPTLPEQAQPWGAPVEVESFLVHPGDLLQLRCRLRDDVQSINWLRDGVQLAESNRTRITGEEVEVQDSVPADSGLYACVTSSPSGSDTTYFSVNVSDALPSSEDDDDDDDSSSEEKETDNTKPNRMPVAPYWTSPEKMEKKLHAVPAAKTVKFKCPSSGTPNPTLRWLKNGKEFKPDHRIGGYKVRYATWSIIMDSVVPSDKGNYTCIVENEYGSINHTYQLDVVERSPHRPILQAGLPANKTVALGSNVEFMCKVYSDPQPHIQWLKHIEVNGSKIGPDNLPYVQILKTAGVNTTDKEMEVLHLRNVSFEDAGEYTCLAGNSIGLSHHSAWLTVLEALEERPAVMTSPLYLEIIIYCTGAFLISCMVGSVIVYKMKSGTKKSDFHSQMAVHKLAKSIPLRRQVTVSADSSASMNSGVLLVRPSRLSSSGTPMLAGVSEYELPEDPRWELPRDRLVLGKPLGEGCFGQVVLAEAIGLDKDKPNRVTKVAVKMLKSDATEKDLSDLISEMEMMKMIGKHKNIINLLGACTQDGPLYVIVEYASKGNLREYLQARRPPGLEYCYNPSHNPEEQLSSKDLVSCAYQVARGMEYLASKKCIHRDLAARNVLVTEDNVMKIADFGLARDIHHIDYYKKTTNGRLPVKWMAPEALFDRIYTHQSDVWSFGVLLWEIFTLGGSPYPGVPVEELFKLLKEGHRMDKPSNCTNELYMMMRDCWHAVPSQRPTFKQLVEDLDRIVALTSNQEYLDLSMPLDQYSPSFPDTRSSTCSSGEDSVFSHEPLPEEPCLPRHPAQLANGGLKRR
Readout: pIC50

For the compound CNc1cc2c(cn1)cc(-c1c(Cl)cccc1Cl)c(=O)n2C , give its measured pIC50 value.
6.68

For the compound C=CC(=O)N1CCC(n2nc3c(=O)[nH]nc(N)c3c2-c2oc3cc(OC)ccc3c2C)CC1 , give its measured pIC50 value.
6.99

For the compound O=C(Nc1cnn(-c2ccccc2)c1)c1ccc(NS(=O)(=O)c2ccc(Cl)cc2)cc1 , give its measured pIC50 value.
4.67

A = Fc1ccc2c(-c3nc4cc(N5CCC(N6CCCCC6)CC5)ccc4[nH]3)[nH]nc2c1
B = COc1cc2c(Nc3ccc(Cl)cc3F)ncnc2cc1OC/C=C/CN1CCCC1.Cl
Which item exceeds the other in pIC50, A or B ? Please indicate the selected item by its label.
A
(A: 7.55, B: 5.72)
